Target: human CD38 (Homo sapiens, UniProt P28907)
Sequence (P28907 1-300): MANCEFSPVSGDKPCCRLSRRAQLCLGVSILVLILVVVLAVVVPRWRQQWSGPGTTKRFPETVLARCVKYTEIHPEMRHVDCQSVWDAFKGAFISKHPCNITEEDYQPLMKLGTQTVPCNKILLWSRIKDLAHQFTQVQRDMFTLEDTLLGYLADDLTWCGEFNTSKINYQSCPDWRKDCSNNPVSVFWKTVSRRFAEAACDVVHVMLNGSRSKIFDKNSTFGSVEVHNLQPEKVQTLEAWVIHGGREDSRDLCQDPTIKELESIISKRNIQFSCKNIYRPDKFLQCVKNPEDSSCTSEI
Assay: NAD+ cyclase activity assay with human recombinant CD38 protein (ε-NAD fluorescence)
Settings: 1.9 nM human CD38, substrate ε-NAD, 30 min preincubation, fluorescence 300/410 nm
testReadout: IC50

Example results:
CC1CC(CC(F)(F)F)CCC1NC(=O)c1cc(F)c2c(c1)-c1cncn1CCO2 (stereo not drawn) [Compound 185A]: < 30 nM
O=C(NC1CCCC(C(F)(F)F)C1)c1ccc2c(c1)-c1cncn1CCO2 (stereo not drawn) [Compound 151A]: < 30 nM

Could you now consider this next molecule?
## Task Need IC50 of COCCO[C@H]1CC[C@H](NC(=O)c2ccc3c(n2)-n2cncc2CCO3)CC1 [Compound 70A] , thanks.
## Result 100 to 1000 nM

====

Biological target: human CD38 (Homo sapiens)
Sequence (P28907 1-300): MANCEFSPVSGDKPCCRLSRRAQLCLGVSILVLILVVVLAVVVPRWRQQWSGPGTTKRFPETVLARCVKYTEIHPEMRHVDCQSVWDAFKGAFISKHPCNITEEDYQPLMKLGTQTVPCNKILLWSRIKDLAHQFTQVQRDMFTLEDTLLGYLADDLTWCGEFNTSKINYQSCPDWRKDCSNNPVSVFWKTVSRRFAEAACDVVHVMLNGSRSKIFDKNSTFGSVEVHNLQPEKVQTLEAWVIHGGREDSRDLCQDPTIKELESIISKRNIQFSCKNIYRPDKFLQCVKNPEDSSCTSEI
Test: NAD+ cyclase activity assay with human recombinant CD38 protein (ε-NAD fluorescence)
Conditions: 1.9 nM human CD38, substrate ε-NAD, 30 min preincubation, fluorescence 300/410 nm
pIC50: −log10 of the molar value.
# pIC50 per entry

Example results:
O=C(Nc1ccc(C(F)(F)F)nc1)c1ccc2c(c1)-c1cncn1CCO2 [Compound 10A]: > 7.52
COCCNc1nc2ccc(C(=O)N[C@@H]3CCCOC3)cc2n2cncc12 [Compound 27A]: 6.00 to 7.00

## Task Need pIC50 of CC1(NC(=O)c2cc(Cl)c3c(c2)-c2cncn2CCO3)CCCCC1 [Compound 163A] , thanks.
## Result > 7.52

## Task Need pIC50 of COCCO[C@H]1CC[C@H](NC(=O)c2cc(F)c3c(c2)-c2cncn2CCO3)CC1 [Compound 57A] , thanks.
## Result > 7.52

====

Molecular target: mouse CD38 (Mus musculus, UniProt P56528)
Construct: purchased Bio-Techne GmbH 4947-AC
Sequence (P56528 1-304): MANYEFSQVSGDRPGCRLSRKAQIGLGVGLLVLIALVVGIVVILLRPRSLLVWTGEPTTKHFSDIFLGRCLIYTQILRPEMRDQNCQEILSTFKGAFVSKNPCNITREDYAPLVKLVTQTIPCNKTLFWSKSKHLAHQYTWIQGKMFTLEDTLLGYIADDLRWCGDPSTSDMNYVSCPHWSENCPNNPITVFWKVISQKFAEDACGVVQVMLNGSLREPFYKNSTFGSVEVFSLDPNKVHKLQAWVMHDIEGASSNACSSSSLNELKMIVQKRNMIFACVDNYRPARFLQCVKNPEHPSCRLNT
Test: NAD+ cyclase activity assay with mouse recombinant CD38 protein (ε-NAD fluorescence)
Type: biochemical
Conditions: 0.6 nM mouse CD38, substrate ε-NAD, 30 min preincubation, fluorescence 300/410 nm
Structures can show the parent of a compound that is named as a salt.
testReadout: IC50

Example results:
CC1(NC(=O)c2cc(F)c3c(c2)-c2cncn2CCO3)CCS(=O)(=O)C1 (stereo not drawn) [Compound 169A]: 10 to 100 nM
O=C(N[C@@H]1CCC(F)(F)C1)c1ccc2c(c1)-c1cncn1CCO2 [Compound 92A]: 1 to 10 nM
COCCO[C@H]1CC[C@H](NC(=O)c2cc(C)c3c(c2)-c2cncn2CCO3)CC1 [Compound 53A]: < 1 nM
O=C(Nc1ccc2c(c1)CNC2)c1ccc2c(c1)-c1cncn1CCO2 [Compound 24A, hydrochloride]: 10 to 100 nM
O=C(N[C@H]1CC[C@H](NCCC(F)(F)F)CC1)c1ccc2c(c1)-c1cncn1CCO2 [Compound 110A]: 1 to 10 nM
O=C(NC1CC(F)(F)C1)c1cc(F)c2c(c1)-c1cncn1CCO2 [Compound 135A]: < 1 nM

## Task Lookup: IC50 / mouse CD38 (Mus musculus, UniProt P56528) / O=C(Nc1ccc2ncoc2c1)c1ccc2c(c1)-c1cncn1CCO2 [Compound 39A]
## Result 1 to 10 nM

## Task Lookup: IC50 / mouse CD38 (Mus musculus, UniProt P56528) / O=C(N[C@H]1CC[C@@H](N2CC(F)(F)C2)CC1)c1ccc2c(c1)-c1cncn1CCO2 [Compound 64A]
## Result 10 to 100 nM

## Task Lookup: IC50 / mouse CD38 (Mus musculus, UniProt P56528) / O=C(Nc1cnc2scnc2c1)c1ccc2c(c1)-c1cncn1CCO2 [Compound 40A]
## Result 1 to 10 nM

## Task Lookup: IC50 / mouse CD38 (Mus musculus, UniProt P56528) / COCC1COc2cc(NC(=O)c3ccc4c(c3)-c3cncn3CCO4)cnc2O1 (stereo not drawn) [Compound 144A]
## Result 1 to 10 nM

## Task Lookup: IC50 / mouse CD38 (Mus musculus, UniProt P56528) / COCCO[C@H]1CC[C@H](NC(=O)c2cc(F)c3c(c2F)-c2cncn2CCO3)CC1 [Compound 91A]
## Result 1 to 10 nM

## Task Lookup: IC50 / mouse CD38 (Mus musculus, UniProt P56528) / COCC1COc2ncc(NC(=O)c3ccc4c(c3)-c3cncn3CCO4)cc2O1 (stereo not drawn) [Compound 145A]
## Result 1 to 10 nM

## Task Lookup: IC50 / mouse CD38 (Mus musculus, UniProt P56528) / O=C(N[C@H]1CC[C@H](OCC(F)(F)F)CC1)c1cc(Cl)c2c(c1)-c1cncn1CCO2 [Compound 157A]
## Result < 1 nM

## Task Lookup: IC50 / mouse CD38 (Mus musculus, UniProt P56528) / CO[C@H]1CC[C@H](NC(=O)c2ccc3c(c2)-c2cncn2CCO3)CC1 [Compound 20A]
## Result < 1 nM

## Task Lookup: IC50 / mouse CD38 (Mus musculus, UniProt P56528) / COCCO[C@H]1CC[C@H](NC(=O)c2cc(F)c3c(c2)-c2cncn2CCO3)CC1 [Compound 57A]
## Result < 1 nM
